Molecular target: T1, recombinant LILRB1 ECD (human, UniProt Q8NHL6 24-461)
T1 construct: also called biotinylated LILRB1 ECD
T1 sequence (Q8NHL6 24-461 limits assumed): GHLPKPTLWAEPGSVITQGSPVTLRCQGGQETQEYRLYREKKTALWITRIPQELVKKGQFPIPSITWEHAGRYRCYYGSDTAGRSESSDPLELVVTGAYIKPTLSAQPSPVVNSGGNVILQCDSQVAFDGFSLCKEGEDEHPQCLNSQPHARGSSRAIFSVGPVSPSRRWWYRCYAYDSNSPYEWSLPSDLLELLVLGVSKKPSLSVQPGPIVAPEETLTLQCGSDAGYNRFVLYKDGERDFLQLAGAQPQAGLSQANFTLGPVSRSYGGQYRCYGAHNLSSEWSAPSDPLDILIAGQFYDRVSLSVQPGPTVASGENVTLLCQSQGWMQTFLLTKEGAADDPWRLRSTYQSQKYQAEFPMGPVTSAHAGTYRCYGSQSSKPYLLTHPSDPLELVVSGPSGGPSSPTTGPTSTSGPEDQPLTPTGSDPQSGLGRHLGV
Test: BLI, IgG on AHC sensor, ECD in solution
Method: Briefly, IgGs were captured on anti-human capture (AHC) biosensors (Sartorius). […] Subsequently, the sensors were dipped into 1× Kinetics Buffer to measure the dissociation over 420 s. All sensorgrams were double referenced against 1× Kinetics Buffer and unloaded […] sensors to subtract sensor drifts and potential reference binding of the analytes. The affinities were determined by applying a 1:1 binding model.
pKd: −log10 of the molar value.
Below is a list of entries, each paired with its recorded pKd value.

binder: A-045 (antibody, V domains shown, tested as IgG; HC of A-010 and LC of A-036) VH: QVQLVQSGAEVKKPGSSVKVSCKASGGTFQSQAFAWVRQAPGQGLEWMGSIIPGFSTANYAQKFQGRVTITADESTSTAYMELSSLRSEDTAVYYCAKDLGTYSSGWPYYYGMDVWGQGTTVTVSS VL: SYELTQPPSVSVSPGQTASITCSGDKLGDKYASWYQQKPGQSPVLVIYQDSKRPSGIPERFSGSNSGNTATLTISGTQAEDEADYYCQLTHLTIYVFGGGTKLTVL
pKd: 8.64

binder: A-025 (antibody, V domains shown, tested as IgG) VH: QVQLVQSGAEVKKPGSSVKVSCKASGYTFSKSAMSWVRQAPGQGLEWMGGIVPKFHTSVYAQKFQGRVTITADESTSTAYMELSSLRSEDTAVYYCAKGPPVGSSSWYTDWYFDLWGRGTLVTVSS VL: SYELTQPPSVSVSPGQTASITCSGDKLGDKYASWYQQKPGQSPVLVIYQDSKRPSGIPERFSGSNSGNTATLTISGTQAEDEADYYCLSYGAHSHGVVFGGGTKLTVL
pKd: 8.74

Data origin, for the record: patent US20260209345A1
